# credit: patent US20250129070A1

Entries and their measured IC50 follow.
# Test system: VCaP cells
# assay.text: VCaP growth inhibition assay
# Type: cell-based
# condition.notes: 30 pM R1881, 9 days, CTG

Worked examples, 4 molecules total:
{"molecule": "CC(=O)N1CCc2c(c(N3CCCc4ccc(C(F)F)cc43)nn2C2CCN(C(=O)C3CCN(c4ncc(C(=O)NC5C(C)(C)C(Oc6ccc(C#N)c(Cl)c6)C5(C)C)cn4)CC3)CC2)C1 (centres unmarked) [Compound 122]", "IC50": "≤ 0.1 nM"}
{"molecule": "CC(=O)N1CCc2c(c(N3CCCc4cc(-c5cnn(C)c5)c(C(F)F)cc43)nn2CCCOc2ncc(C(=O)NC3C(C)(C)C(Oc4ccc(C#N)c(Cl)c4)C3(C)C)cn2)C1 (centres unmarked) [Compound 43]", "IC50": "> 100 nM"}
{"molecule": "CC(=O)N1CCc2c(c(N3CCCc4cc(-c5cnn(C)c5)c(C(F)F)cc43)nn2C2CCN(CC3CCN(c4ncc(C(=O)NC5C(C)(C)C(Oc6ccc(C#N)c(Cl)c6)C5(C)C)nn4)CC3)CC2)C1 (centres unmarked) [Compound 152]", "IC50": "≤ 0.1 nM"}
{"molecule": "CC(=O)N1CCc2c(c(-c3cccc4cc(-c5ccc(CC6CC7(C6)CN(c6ncc(C(=O)NC8C(C)(C)C(Oc9ccc(C#N)c(Cl)c9)C8(C)C)cn6)C7)nc5)ncc34)nn2C2CCOCC2)C1 (centres unmarked) [Compound 228]", "IC50": "0.1 to 1 nM"}

Consider now this further molecule.
## Input Which IC50 is listed for COc1cc(OC2C(C)(C)C(NC(=O)c3ccc(N4CCC5(CCC(n6nc(N7CCCc8cc(-c9cnn(C)c9)c(C(F)F)cc87)c7c6CCN(C(C)=O)C7)CC5)C4)cc3)C2(C)C)ccc1C#N (centres unmarked) [Compound 406] ?
## Output 1 to 100 nM
